# ASSAY PROCEDURE: physchem
# SETUP CONDITIONS: octanol/water
# Description: Partition coefficient (logP)
So I've got a bunch of molecules here, and I need their logP values.
Answer with a number only.

Lookup: Fill blank: measured logP of the molecule NS(=O)(=O)c1nnc(NC(=O)c2ccc(Cl)c(S(N)(=O)=O)c2)s1 is ____.
Found: 1.89

Lookup: Which logP reading was recorded for the molecule NS(=O)(=O)c1ccc(CCNC(=O)c2ccc(S(N)(=O)=O)cc2)cc1 ?
Found: 1.43

Lookup: Can you look up the measured logP of NS(=O)(=O)c1ccc(C(=O)N[C@@H](Cc2c[nH]cn2)C(=O)N[C@@H](Cc2ccccc2)C(=O)O)cc1 for me?
Found: 1.74

Lookup: Please give the measured logP for this molecule: CC(C)C[C@H](NC(=O)c1ccc(S(N)(=O)=O)cc1)C(=O)NCC(=O)O
Found: 1.82
